- SYSTEM: cyno SIRPα stably expressed on CHOK1 cells (cyno)
- EXPERIMENTAL_DETAILS: FACS, CHOK1-Cyno SIRPα cells
Overview of reported pEC50 across a group of binders:
// scale note: pEC50 = -log10(conc_M); give the bare number

071c (antibody, V domains shown) VH: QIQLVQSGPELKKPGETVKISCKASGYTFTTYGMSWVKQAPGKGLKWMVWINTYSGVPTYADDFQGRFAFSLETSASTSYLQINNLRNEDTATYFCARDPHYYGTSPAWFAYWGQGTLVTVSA VL: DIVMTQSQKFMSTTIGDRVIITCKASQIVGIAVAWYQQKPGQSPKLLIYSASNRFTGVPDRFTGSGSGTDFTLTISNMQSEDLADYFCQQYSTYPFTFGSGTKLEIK
8.58

[Q] Quick one: pEC50 for 015c (antibody, V domains shown) VH: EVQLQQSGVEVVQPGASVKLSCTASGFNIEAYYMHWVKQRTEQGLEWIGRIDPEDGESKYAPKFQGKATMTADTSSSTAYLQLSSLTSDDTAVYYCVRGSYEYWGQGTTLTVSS VL: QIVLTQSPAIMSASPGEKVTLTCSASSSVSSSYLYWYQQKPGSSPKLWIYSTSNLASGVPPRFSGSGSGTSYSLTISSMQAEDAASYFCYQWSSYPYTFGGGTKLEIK ?
[A] 9.16

[Q] What would you report for 073c (antibody, V domains shown) VH: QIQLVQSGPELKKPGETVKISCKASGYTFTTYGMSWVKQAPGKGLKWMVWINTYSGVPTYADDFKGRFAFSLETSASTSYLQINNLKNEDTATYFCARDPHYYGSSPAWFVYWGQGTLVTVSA VL: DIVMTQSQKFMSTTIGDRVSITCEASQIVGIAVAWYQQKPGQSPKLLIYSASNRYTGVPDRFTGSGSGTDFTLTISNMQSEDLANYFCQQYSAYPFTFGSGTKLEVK ?
[A] 8.75

[Q] What would you report for 042c (antibody, V domains shown) VH: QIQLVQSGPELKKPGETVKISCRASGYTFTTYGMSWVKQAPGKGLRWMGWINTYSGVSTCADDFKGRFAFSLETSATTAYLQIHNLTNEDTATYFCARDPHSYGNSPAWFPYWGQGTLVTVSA VL: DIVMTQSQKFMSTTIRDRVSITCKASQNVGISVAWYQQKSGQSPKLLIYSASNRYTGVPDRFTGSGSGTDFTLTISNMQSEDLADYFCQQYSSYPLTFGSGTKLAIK ?
[A] 8.53

[Q] What would you report for 059c (antibody, V domains shown) VH: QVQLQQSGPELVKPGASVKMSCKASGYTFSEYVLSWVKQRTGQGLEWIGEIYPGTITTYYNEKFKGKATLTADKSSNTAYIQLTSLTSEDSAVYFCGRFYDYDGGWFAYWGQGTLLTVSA VL: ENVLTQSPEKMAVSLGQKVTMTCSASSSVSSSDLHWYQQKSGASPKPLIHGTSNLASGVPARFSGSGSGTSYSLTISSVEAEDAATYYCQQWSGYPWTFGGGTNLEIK ?
[A] 7.76

The origin of these recorded values is patent US20250270315A1.
